Entry source: PubChem BioAssay (NCI)

Tested on: UACC-257 melanoma
Assay: NCI tumour cell line growth inhibition, 48 h
Consider the following molecules and their measured TGI readings.
Please state the figure in µM; there is no need to write the unit.

molecule: C=C1C(=O)O[C@H]2[C@H]1[C@H](OC(=O)/C(C)=C\C)C[C@]1(CO1)[C@@H]1[C@H](OC(C)=O)C=C(C)[C@]21O
unitName: µM
TGI: 39.2

Now consider a different molecule.
Qu. Could you tell me which TGI is on file for "COc1ccc(NC(=O)Nc2ccc(Nc3nc(C)cc(Nc4ccc(C)cc4)n3)cc2)cc1" ?
Ans. 3.69

----------
# TGI per entry
System: ACHN renal
Assay: NCI tumour cell line growth inhibition, 48 h

Consider the following illustrative entries.
compound: COc1ccc(-c2onc(-c3c(C)cc(C)cc3C)c2C2=NCCCN2)cc1
measuredResult: > 100 µM
--
compound: COC(=O)c1c2c(c(C)[n+]([O-])c1C)C(=O)C(NCc1cccc(OC)c1)=CC2=O
measuredResult: 10.2 µM
--
compound: CC(C)(C)C1CCC2(CC1)CCN(CCCN1CCOCC1)CC2
measuredResult: > 100 µM

Qu. // fetch ACHN renal TGI for "CC(=N/NC(=S)Nc1c(C)n(C)n(-c2ccccc2)c1=O)/C(C)=N\NC(=S)Nc1c(C)n(C)n(-c2ccccc2)c1=O"
Ans. > 100 µM

Qu. Record lookup: for ACHN renal, what TGI belongs to "COc1cc2nc(-c3ccc(-n4cncc4-c4ccc(N)cc4)cc3)sc2c(OC)c1OC" ?
Ans. > 100 µM

----------
System: SK-MEL-28 melanoma
Assay: NCI tumour cell line growth inhibition, 48 h
# Lookup of reported TGI keyed by entry

Please review the entries below; each comes with its answer.
compound: Cc1cnc2[nH]c(-c3ccc(F)cc3)cc(=O)c2c1
TGI: > 100 µM

compound: O=c1n(-c2ccccc2)c(=O)n2n1C1CCC2CC1
TGI: > 100 µM

compound: CCCC(=O)NC(c1ccc2c(c1)OCO2)c1ccc2cccnc2c1O (configuration not stated)
TGI: > 100 µM

compound: Cc1cc(NC(=O)C(=O)Cc2cnc3ccccc3n2)c(S(=O)(=O)O)cc1Cl
TGI: > 100 µM

compound: COc1ccc2c(c1OC)-c1c(c3ccc([N+](=O)[O-])cc3c(=O)n1CCCN=[N+]=[N-])C2=O
TGI: > 100 µM

compound: O=C(O)c1ccc(N=Nc2cc(S(=O)(=O)O)c3cccnc3c2O)cc1
TGI: > 100 µM

Qu. What measured TGI is associated with "CCN(CC)Cc1ccc2cccnc2c1O" on SK-MEL-28 melanoma?
Ans. > 100 µM

Qu. Under SK-MEL-28 melanoma: TGI value of "BrC(Br)(Br)c1cnc2ccccc2n1" ?
Ans. 4.24 µM

Qu. Kindly state the measured TGI obtained for CC(NC(=O)/C(C#N)=C/c1ccc2[nH]ccc2c1)c1ccccc1 (configuration not stated) with SK-MEL-28 melanoma.
Ans. 36.9 µM

Qu. Tell me reported TGI for O=C1C=CN(C2OC(CO)C(O)C2O)C(=O)C1 (configuration not stated) , tested with SK-MEL-28 melanoma.
Ans. > 2500 µM

Qu. Short answer please: TGI, SK-MEL-28 melanoma, entry "Cn1cnc([N+](=O)[O-])c1SCC(=O)O"
Ans. > 100 µM

Qu. Please provide the recorded TGI for O=C(CC1(O)C(=O)Nc2ccc(Br)cc21)c1ccc(C(=O)NCC2CCC3(CC2)OOC2(CCCCC2)OO3)cc1 (configuration not stated) , tested on SK-MEL-28 melanoma.
Ans. 46 µM

Qu. Checklist item: TGI tested on SK-MEL-28 melanoma, entry "Cc1ncc(CO)c(CN)c1O" , value?
Ans. > 100 µM

Qu. Request - read-out TGI | tested on SK-MEL-28 melanoma | compound "CC(C)C[C@H](NC(=O)CCc1ccccc1)B(O)O"
Ans. 32.4 µM

Qu. I'm curious: which TGI was measured for "C[n+]1cccc(/C=C/c2ccc3cccc(O)c3n2)c1" tested on SK-MEL-28 melanoma?
Ans. > 100 µM

Qu. Please state recorded TGI (tested on SK-MEL-28 melanoma) of COC(=O)C(/C(=N/N)C(=O)Nc1cc(Cl)c(Cl)cc1Cl)c1nc2ccc(Cl)cc2[nH]c1=O (configuration not stated)
Ans. > 100 µM

----------
System: CCRF-CEM leukemia
Test: NCI tumour cell line growth inhibition, 48 h
measuredEndpoint: TGI

Past entries and their recorded results:
compound: Cc1[nH]nc2c1N=C(c1ccccc1F)c1cc(C#N)ccc1N2
TGI: > 13.6 µM
//
compound: CC(=O)OCC(OC(C)=O)C(OC(C)=O)C(OC(C)=O)C(=O)CNn1c(-c2ccccc2)nc2ccc(Br)cc2c1=O (stereo not given)
TGI: > 100 µM
//
compound: CCCCSCc1nc2nc(Cl)c(Cl)nc2[nH]1
TGI: 63.6 µM

Qu. Value lookup for TGI; key = CC(=O)c1c(O)ccc2c1CC(CC=O)O2 (stereo not given)
Ans. > 100 µM

Qu. Form field: reported TGI of "CCCCCCNC(=O)Oc1ccc(/C(=C(\C)c2ccccc2)c2ccc(OCCN3CCCCC3)cc2)cc1"
Ans. 17.2 µM

Qu. Quick one: TGI of COC(=O)/C(C#N)=C1\NC(=O)CC(c2ccccc2)C1C#N (stereo not given) ?
Ans. > 100 µM

Qu. # query: TGI of entry COC1=CC(C2c3cc4c(cc3[C@@H](Nc3ccc([N+](=O)[O-])cc3)C3COC(=O)[C@H]23)OCO4)=CC(=O)C1=O (stereo not given in full)
Ans. > 25.3 µM

Qu. What value of measured TGI is listed for "O=C(N/C(=C\c1ccc(Br)cc1)c1nc2ccccc2s1)c1ccccc1" ?
Ans. > 100 µM

Qu. Query (compound): "O=C(O)c1ccc(S(=O)(=O)N=Nc2c(O)[nH]c3ccccc23)cc1" ; field requested: TGI
Ans. > 100 µM

Qu. Look at this compound and give its reported TGI. "CCOC(=O)CNC(=O)CCCn1c(=O)c2c3ccccc3n(C)c2n2nnc(-c3ccccc3)c12"
Ans. > 50 µM

----------
Tested on: CAKI-1 renal
Assay: NCI tumour cell line growth inhibition, 48 h
measuredEndpoint: TGI

molecule: C#CCOc1ccc2ncnc(Nc3ccc(NC(=O)CCl)cc3)c2c1
TGI: 23.6 µM

molecule: Cc1[nH]c(=O)nc(CC(O)(c2ccccc2)c2ccccc2)c1-c1ccccc1
TGI: > 100 µM

molecule: CC(C)CNc1nc(N)[nH]c(=O)c1NC=O
TGI: > 100 µM

Qu. // lookup TGI for N#CCC(=O)N/N=C1/C(=O)NC(=O)C(=O)C1c1nc2ccccc2s1 (stereo not given)
Ans. > 100 µM

Qu. Which TGI is listed for "CN(C)[C@@H]1C(=O)C(C(=O)NCNCCCC(=O)O)=C(O)[C@@]2(O)C(=O)C3=C(O)c4c(O)cccc4[C@@](C)(O)[C@H]3C[C@@H]12" ?
Ans. > 100 µM

Qu. Can you look up the measured TGI of "CC(F)(F)c1cc(F)ccc1-c1sc2cc(O)ccc2c1Oc1ccc(/C=C/C(=O)O)cc1" for me?
Ans. 20.2 µM

Qu. Using the record for "CCCCCC(=O)OCC(=O)[C@H]1[C@H](C)C[C@H]2[C@@H]3C[C@H](F)C4=C/C(=N/OC(=O)c5cccc6c(=O)c7ccccc7[nH]c56)C=C[C@]4(C)[C@H]3[C@@H](O)C[C@@]21C" , report its TGI.
Ans. > 100 µM

----------
Tested on: ACHN renal
Experiment: NCI tumour cell line growth inhibition, 48 h
# maps each entry to its TGI

Below are worked cases with known answers.
compound: COc1ccc(C2CC(=O)Oc3ccccc3O2)cc1 (stereo not given)
TGI: > 100 µM
//
compound: CN1CC2=C(NC(=S)NC2c2ccc(Cl)cc2)/C(=C/c2ccc(Cl)cc2)C1 (stereo not given)
TGI: 57.9 µM
//
compound: Cc1nccc2c1cnc1ccnn12
TGI: > 100 µM

Qu. TGI for "CN(C)CCCSc1c2ccccc2nc2cc(NCC(=O)Nc3ccccc3-c3ccccc3NC(=O)CNc3ccc4c(SCCCN(C)C)c5ccccc5nc4c3)ccc12" ?
Ans. > 100 µM

Qu. Any idea what TGI was measured for "O=C(/C=C/c1c(O)ccc2ccccc12)c1cccc2ccccc12" ?
Ans. > 100 µM

Qu. So what does the record say about TGI for C[C@H]1CCC/C=C/[C@@H]2C[C@H](O)C[C@H]2[C@H](O)[C@@H](S(=O)CCN)CC(=O)O1 (stereo not given in full) ?
Ans. 2.84 µM

Qu. Value lookup for TGI; key = Cc1c(C2Cc3ccccc3N2C(=O)/C=C\C(=O)O)c2ccccc2n1C (stereo not given)
Ans. > 100 µM

Qu. If you can, please state the reported TGI value of "COc1cnc2c(c1)C(=O)c1c-2n(CCCN2CCNCC2)c(=O)c2cc(Cl)ccc12" .
Ans. 1.27 µM

Qu. Quick one: TGI for O=C(O)C(Br)C(Br)c1ccccc1[N+](=O)[O-] (stereo not given) ?
Ans. > 100 µM

Qu. For the compound shown here, "NC(=O)c1csc(CCCCCCc2nc(C(N)=O)cs2)n1" , give the reported TGI.
Ans. > 100 µM
